assay: chemical genetic growth profiling, strain panel (AID 1159580);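 further: tested at 20 µM; growth read once vehicle control cultures reached saturation at 30 °C; 1 = growth at the plate median or of vehicle wells; lower values mean less growth of the strain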; conditions: S. cerevisiae deletion strains, growth OD, locus YOR270C, strain vph1, active compounds read low
Screen size: about 5,500 compounds; about 2,000 (36%) were called active. About 18% were inconclusive and are not listed. This is one part of the list.

[
  {
    "molecule": "O=C(CC(=O)c1ccccc1)c1ccccc1",
    "normalized growth": 0.105
  },
  {
    "molecule": "NCC(N)C(=O)c1ccccc1 (stereo unspecified)",
    "normalized growth": 1.11
  },
  {
    "molecule": "CNCCCC12CCC(c3ccccc31)c1ccccc12",
    "normalized growth": 0.927
  },
  {
    "molecule": "CC(=O)O[C@@H]1CC2C(C)(C)C(=O)C=C[C@]2(C)C2CC[C@]3(C)C(=CC(=O)O[C@H]3c3ccoc3)[C@@]21C (stereo partly specified)",
    "normalized growth": 1.07
  },
  {
    "molecule": "NCC(=O)c1ccccc1",
    "normalized growth": 1.06
  },
  {
    "molecule": "Cc1cc(=O)oc2cc(O)c(O)cc12",
    "normalized growth": 0.893
  },
  {
    "molecule": "O=C(OCc1ccccc1)c1ccccc1",
    "normalized growth": 0.927
  },
  {
    "molecule": "CC(=O)O[C@@H]1C=C[C@@]2(C)C(C[C@@H](OC(C)=O)[C@@]3(C)C4=CC(=O)O[C@@H](c5ccoc5)[C@]4(C)CCC23)C1(C)C (stereo partly specified)",
    "normalized growth": 0.885
  },
  {
    "molecule": "CC(=O)OCC(=O)[C@@]1(O)[C@H](C)CC2C3CCC4=CC(=O)C=C[C@]4(C)[C@@]3(F)[C@@H](O)C[C@@]21C (stereo partly specified)",
    "normalized growth": 0.95
  },
  {
    "molecule": "CC(=O)O[C@H]1CC[C@@]2(C)C(C[C@@H](OC(C)=O)[C@@]3(C)C4=CC(=O)O[C@@H](c5ccoc5)[C@]4(C)CCC23)C1(C)C (stereo partly specified)",
    "normalized growth": 0.886
  },
  {
    "molecule": "O=C(OOC(=O)c1ccccc1)c1ccccc1",
    "normalized growth": 0.973
  },
  {
    "molecule": "C=C1c2cccc(O)c2C(O)=C2C(=O)[C@]3(O)C(O)=C(C(N)=O)C(=O)[C@@H](N(C)C)[C@@H]3[C@@H](O)[C@H]12",
    "normalized growth": 1
  },
  {
    "molecule": "CN(C)[C@@H]1C(=O)C(C(N)=O)=C(O)[C@@]2(O)C(=O)C3=C(O)c4c(O)ccc(Cl)c4[C@@H](O)[C@H]3C[C@@H]12",
    "normalized growth": 0.966
  },
  {
    "molecule": "Nc1ccc(C(=O)O)cc1",
    "normalized growth": 1.07
  },
  {
    "molecule": "NC(=O)NC(=O)Cc1ccccc1",
    "normalized growth": 0.979
  },
  {
    "molecule": "CN(C)[C@@H]1C(=O)C(C(N)=O)=C(O)[C@@]2(O)C(=O)C3=C(O)c4c(O)cccc4[C@@](C)(O)[C@H]3[C@H](O)[C@@H]12",
    "normalized growth": 1.04
  },
  {
    "molecule": "CC(C)(C)NCC(O)c1ccc(O)c(CO)c1 (stereo unspecified)",
    "normalized growth": 1.02
  },
  {
    "molecule": "Oc1c(Cl)cc(Cl)cc1Sc1cc(Cl)cc(Cl)c1O",
    "normalized growth": 0.113
  },
  {
    "molecule": "NC(Cn1ccc(=O)c(O)c1)C(=O)O (stereo unspecified)",
    "normalized growth": 1.07
  },
  {
    "molecule": "CCN1CCN(C(=O)NC(C(=O)N[C@@H]2C(=O)N3[C@@H]2SC(C)(C)[C@@H]3C(=O)O)c2ccccc2)C(=O)C1=O (stereo partly specified)",
    "normalized growth": 1.01
  },
  {
    "molecule": "CC(C)NCC(O)COc1ccc(COCCOC(C)C)cc1 (stereo unspecified)",
    "normalized growth": 1.01
  }
]

Values were extracted from PubChem BioAssay AID1159580.
